target_under_test: RNA-editing ligase 1, mitochondrial (Trypanosoma brucei brucei)
Sequence (P86926 whole entry): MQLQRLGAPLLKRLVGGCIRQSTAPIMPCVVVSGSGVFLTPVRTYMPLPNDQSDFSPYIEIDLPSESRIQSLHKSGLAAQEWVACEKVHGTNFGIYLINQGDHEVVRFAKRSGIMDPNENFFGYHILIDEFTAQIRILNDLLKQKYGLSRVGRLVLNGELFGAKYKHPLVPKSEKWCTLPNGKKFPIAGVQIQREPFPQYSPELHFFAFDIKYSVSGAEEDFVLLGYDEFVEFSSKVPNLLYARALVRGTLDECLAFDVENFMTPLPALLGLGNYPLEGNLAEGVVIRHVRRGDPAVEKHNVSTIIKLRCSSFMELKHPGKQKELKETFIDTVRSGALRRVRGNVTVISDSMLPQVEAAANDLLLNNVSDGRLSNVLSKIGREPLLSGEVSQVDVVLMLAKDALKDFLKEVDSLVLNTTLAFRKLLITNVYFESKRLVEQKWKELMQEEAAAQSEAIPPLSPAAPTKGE
Quick reference for pIC50 among some compounds
Conceptually, pIC50 converts a concentration in mol/L into minus its log10.

COc1ccc(Cn2c(Nc3cc(Cl)ccc3OC)c3[nH]cccc-3c2=O)cc1 ... 4.79

Now let's try a different one.
Query: For the compound shown here, NC(=NNC=c1ccc(=C2C=CC(=O)C(C(=O)O)=C2)o1)N[N+](=O)[O-] , give the reported pIC50.
Response: 4.67
